B1: library; a variant is named by its letters at N, in order (parent)
chain: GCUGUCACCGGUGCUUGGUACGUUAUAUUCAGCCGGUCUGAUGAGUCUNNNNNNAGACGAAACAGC

Variants of: B1
Test: normalized RNA/DNA level without ligand (relative to sTRSVctl = 100) (log10 (% of sTRSVctl)); HEK293T overexpressing SLC46A1; higher = less ribozyme self-cleavage, higher mRNA level
Settings: without (6R,S)-folinic acid; ligand present: no
measuredAttribute: normalized RNA/DNA level without ligand (log10)
Quick one: just the number, no unit, thanks!

Prompt: Param item = GCUGUCACCGGUGCUUGGUACGUUAUAUUCAGCCGGUCUGAUGAGUCUCAGGUGAGACGAAACAGC [CAGGUG] ; retrieve measured normalized RNA/DNA level without ligand (log10).
Response: 1.96

Prompt: Param item = GCUGUCACCGGUGCUUGGUACGUUAUAUUCAGCCGGUCUGAUGAGUCUCCGCACAGACGAAACAGC [CCGCAC] ; retrieve measured normalized RNA/DNA level without ligand (log10).
Response: 2

Prompt: Param item = GCUGUCACCGGUGCUUGGUACGUUAUAUUCAGCCGGUCUGAUGAGUCUGGAACUAGACGAAACAGC [GGAACU] ; retrieve measured normalized RNA/DNA level without ligand (log10).
Response: 2.03

Prompt: Param item = GCUGUCACCGGUGCUUGGUACGUUAUAUUCAGCCGGUCUGAUGAGUCUUCCACAAGACGAAACAGC [UCCACA] ; retrieve measured normalized RNA/DNA level without ligand (log10).
Response: 1.98

Prompt: Param item = GCUGUCACCGGUGCUUGGUACGUUAUAUUCAGCCGGUCUGAUGAGUCUGGUCACAGACGAAACAGC [GGUCAC] ; retrieve measured normalized RNA/DNA level without ligand (log10).
Response: 1.99

Prompt: Param item = GCUGUCACCGGUGCUUGGUACGUUAUAUUCAGCCGGUCUGAUGAGUCUAACUAGAGACGAAACAGC [AACUAG] ; retrieve measured normalized RNA/DNA level without ligand (log10).
Response: 1.94

Prompt: Param item = GCUGUCACCGGUGCUUGGUACGUUAUAUUCAGCCGGUCUGAUGAGUCUUUUUCUAGACGAAACAGC [UUUUCU] ; retrieve measured normalized RNA/DNA level without ligand (log10).
Response: 2.01

Prompt: Param item = GCUGUCACCGGUGCUUGGUACGUUAUAUUCAGCCGGUCUGAUGAGUCUCCUGGCAGACGAAACAGC [CCUGGC] ; retrieve measured normalized RNA/DNA level without ligand (log10).
Response: 2.05

Prompt: Param item = GCUGUCACCGGUGCUUGGUACGUUAUAUUCAGCCGGUCUGAUGAGUCUGCCGUUAGACGAAACAGC [GCCGUU] ; retrieve measured normalized RNA/DNA level without ligand (log10).
Response: 2.07

Prompt: Param item = GCUGUCACCGGUGCUUGGUACGUUAUAUUCAGCCGGUCUGAUGAGUCUUUAUCGAGACGAAACAGC [UUAUCG] ; retrieve measured normalized RNA/DNA level without ligand (log10).
Response: 1.88

Prompt: Param item = GCUGUCACCGGUGCUUGGUACGUUAUAUUCAGCCGGUCUGAUGAGUCUUACCGUAGACGAAACAGC [UACCGU] ; retrieve measured normalized RNA/DNA level without ligand (log10).
Response: 1.99

Prompt: Param item = GCUGUCACCGGUGCUUGGUACGUUAUAUUCAGCCGGUCUGAUGAGUCUGACGUGAGACGAAACAGC [GACGUG] ; retrieve measured normalized RNA/DNA level without ligand (log10).
Response: 1.95

Prompt: Param item = GCUGUCACCGGUGCUUGGUACGUUAUAUUCAGCCGGUCUGAUGAGUCUGGAUAAAGACGAAACAGC [GGAUAA] ; retrieve measured normalized RNA/DNA level without ligand (log10).
Response: 2

Prompt: Param item = GCUGUCACCGGUGCUUGGUACGUUAUAUUCAGCCGGUCUGAUGAGUCUCAAGGCAGACGAAACAGC [CAAGGC] ; retrieve measured normalized RNA/DNA level without ligand (log10).
Response: 1.99

Prompt: Param item = GCUGUCACCGGUGCUUGGUACGUUAUAUUCAGCCGGUCUGAUGAGUCUCUUGGAAGACGAAACAGC [CUUGGA] ; retrieve measured normalized RNA/DNA level without ligand (log10).
Response: 2

Prompt: Param item = GCUGUCACCGGUGCUUGGUACGUUAUAUUCAGCCGGUCUGAUGAGUCUUGGUCGAGACGAAACAGC [UGGUCG] ; retrieve measured normalized RNA/DNA level without ligand (log10).
Response: 1.84

Prompt: Param item = GCUGUCACCGGUGCUUGGUACGUUAUAUUCAGCCGGUCUGAUGAGUCUGGAUUCAGACGAAACAGC [GGAUUC] ; retrieve measured normalized RNA/DNA level without ligand (log10).
Response: 2.04

Prompt: Param item = GCUGUCACCGGUGCUUGGUACGUUAUAUUCAGCCGGUCUGAUGAGUCUACUGUAAGACGAAACAGC [ACUGUA] ; retrieve measured normalized RNA/DNA level without ligand (log10).
Response: 1.96

Prompt: Param item = GCUGUCACCGGUGCUUGGUACGUUAUAUUCAGCCGGUCUGAUGAGUCUGGAGAAAGACGAAACAGC [GGAGAA] ; retrieve measured normalized RNA/DNA level without ligand (log10).
Response: 1.96

Prompt: Param item = GCUGUCACCGGUGCUUGGUACGUUAUAUUCAGCCGGUCUGAUGAGUCUGGCUCGAGACGAAACAGC [GGCUCG] ; retrieve measured normalized RNA/DNA level without ligand (log10).
Response: 2.07

Prompt: Param item = GCUGUCACCGGUGCUUGGUACGUUAUAUUCAGCCGGUCUGAUGAGUCUCCGAUGAGACGAAACAGC [CCGAUG] ; retrieve measured normalized RNA/DNA level without ligand (log10).
Response: 2

Prompt: Param item = GCUGUCACCGGUGCUUGGUACGUUAUAUUCAGCCGGUCUGAUGAGUCUACCGUCAGACGAAACAGC [ACCGUC] ; retrieve measured normalized RNA/DNA level without ligand (log10).
Response: 2.1
